assay: yeast display, Sf9 membrane polyspecificity reagent, FACS + sequencing; frameworks hold sequencing errors
attribute-measured: polyreactivity (PSR sort gate)

- seq-text: "QVHLVDSGGGLVQAGGSLSLSCAASGIIFLTNAMGWYRQAPGTERELVAAITAIGGSTYYADSVKGSFTISRDTSKYTVYLQMNSLKPEDTAGYYCAADFSYVYYLYDYWGQGTQVTVSS"
  value: "low polyreactivity"
- seq-text: "QVQLVESGGGLVQAGGSLRLSCAASGFTFKRNAMGWYRQAPGKERELVASITSRGGSTDYADSVKGRFTISRDNAKNTVYLQMNSLKPEDTAVYYCAAVKYVVYYRSDYWGQGTQVTVSS"
  value: "high polyreactivity"
- seq-text: "QVQLVESGGGLVQAGGSLRLSCAASGFTFWEYAMGWYRQAPGKERELVAAISRGTSTYYADSVKGRFTISRDNAKNTVYLQMNSLKPEDTAVYYCAAAPSYYPARHGYWGQGTQVTVSS"
  value: "low polyreactivity"
- seq-text: "QVQLVESGGGLVQAGGSLRLSCAASGYLLGHYAMGWYRQATGKERELVAAISWSGGSTSYADSVKGRFTISRDKAKITFYLQMNSLKREDTAVYDCASAYYAYSRHAGGYWGQGTQVTVSS"
  value: "low polyreactivity"
- seq-text: "QVQLVESGGGLVQAGGSLRLSCAASGLTFLFYAMGWYRHATGKERELVASIRWSDGRTYYADSVKGRFTISRDNAKNTVYLQMNSLKPEDTAVYYCAVVPAYVYLNREYYWGQGTQVTVSS"
  value: "high polyreactivity"
- seq-text: "QVQLVESVGGLVQAGGSLRLTCAASGSTFWLNDMGWYRQATGKERELVAAISFSGASTYYADSVKGRFTISRDNAKNTVYLQMNILKPEDTAVYYCNAGWGRAEFLSEAVFDSRMYYWGQGTQVTVSS"
  value: "low polyreactivity"
- seq-text: "QVPLVESGGGLVQAGGSLRLSCAASGLTVSSYAMGWYRQAPGKERELVAVFSRTGGSTYYADSVKGRFTISRDNAKNTVYLQMNSLKPEDTAVYYCAARSYNGWRYDSWGQGTQVTVSS"
  value: "high polyreactivity"
- seq-text: "QAQLQESGGSLLQAGGGLRLSCAASGYISVGSVMGWYRQAPSKERELVASIDQGANTNYADSVKGRYTISRDNAKNNVYLQMNSLKPEDSAVYYCATETTYILNYWGQGTQVTVSS"
  value: "low polyreactivity"
- seq-text: "QVQLEESGVGLVQAGGSLRLSCAASGFIFSFYAMGWSRQAPGKERELVAVISKSGGSTYYADSVKGRFTISRDNAKNTVYLQMNSLKPEDTAVYFCAADSTVGRLLSFDYWGQGTQVTVSS"
  value: "low polyreactivity"
- seq-text: "KVQLVESGGGLVQAGGSLRLSCAASGFTFYIYAMGWYRPAPGKEREVVAAISARGGSTYYADSVKGRFTISRDNAKTTGYLQMNSLKPEDTAVDYCNALYIYAEIYGRGFWGQGTQVTVSS"
  value: "high polyreactivity"
- seq-text: "QVQLVESGGGLVQAGGSLRLSCAASGNIIDFYAMGWYRQAPGKERELVAAITSGGSTNFADSVKGRFTISRDNAKNTVYLQMNSLKPEDTAVYYCAARQWFSHRRWGGSRYDYWGQGTQVTVSS"
  value: "high polyreactivity"
